Below: a set of entries, each annotated with reported melting point.

CCN1CCN(c2ccc3nc(-c4cc5cc(C)nc(C)c5o4)cc(=O)n3c2)CC1 [Compound 601]: 202 to 204 °C
Cc1cn2cc(-c3cc(=O)n4cc(N5CCN(C(C)C)CC5)ccc4n3)cc(F)c2n1 [Compound 373]: 260 to 264 °C
COc1ccc(-c2cc(=O)n3cc(N4CCC(N(C)C)CC4)ccc3n2)cc1F [Compound 185]: 196 to 201 °C
COc1ccc(-c2cc(=O)n3cc(N4CCN[C@@H](C)C4)ccc3n2)cc1OC [Compound 30]: 153 to 158 °C
Cc1nc(C2=CCNCC2)cn2c(=O)cc(-c3ccc4nn(C)cc4c3)nc12 [Compound 791]: > 240 °C (dec.)

**Query** Which melting point reading was recorded for the compound CCCc1nc(C)cn2nc(-c3cc(=O)n4cc(N5CCNCC5)ccc4n3)cc12 [Compound 723] ?
**Result** 250 to 252 °C

**Query** Param item = Cc1cn2nc(-c3cc(=O)n4cc(N5C[C@@H]6C[C@H]5CN6C)ccc4n3)cc2c(C)n1 [Compound 400] ; retrieve measured melting point.
**Result** 188 to 191 °C

**Query** Tell me the measured melting point of N#Cc1ccc(-c2cc(=O)n3cc(N4CCNCC4)ccc3n2)cc1 [Compound 73] , please.
**Result** 146 to 151 °C

###

Test system: SMN2 minigene mRNA (SMN2-A minigene) in HEK293H cells
Assay: SMN2 minigene mRNA splicing RT-qPCR assay in cultured cells
Format: cell-based, human
Details: Homo sapiens, HEK293-H; concentration increasing full length SMN2 mRNA 1.5-fold relative to vehicle-treated cells; HEK293H cells with SMN2-A minigene, 24 hours, 7-point concentration data; read-out: EC1.5x for production of full length SMN2 mRNA
Method: The reverse transcription-quantitative PCR-based (RT-qPCR) assay is used to quantify the level of the full length SMN2 minigene mRNA containing SMN2 exon 7 in a HEK293H cell line stably transfected with said minigene and treated with a test compound. Protocol. […] The increase of SMN2 minigene FL mRNA relative to that in cells treated with vehicle control is determined from real-time PCR data using a modified ΔΔCt method (as described in Livak and Schmittgen, Methods, 2001, 25:402-8). […]
Readings of EC (1.5-fold increase) for the listed compounds

Example entries begin here.
C[C@@H]1CN(c2ccc3nc(-c4ccc5c(c4)OCCO5)cc(=O)n3c2)CCN1: 3 to 30 µM
CCc1cc(-c2cc(=O)n3cc(N4CCN[C@H](C)C4)ccc3n2)cn2cc(C)nc12: < 0.1 µM
COc1ccc(-c2cc(=O)n3cc(N4CCCN(C)CC4)ccc3n2)cc1: 1 to 3 µM
Cc1cccc(-c2cc(=O)n3cc(N4CCNCC4)ccc3n2)c1: 3 to 30 µM
Cc1cn2cc(-c3ccc4nc(C5=CCNCC5)cc(=O)n4c3)ccc2n1: < 0.1 µM

**Query** Reported EC (1.5-fold increase) for CCN1CCC(c2cn3c(=O)cc(-c4ccc5nn(C)cc5c4)nc3cn2)CC1 : what is it?
**Result** < 0.1 µM

**Query** Can you share its EC (1.5-fold increase)? I mean this compound: CCc1nc(C)cn2nc(-c3cc(=O)n4cc(N5CCC(N6CCCC6)CC5)ccc4n3)cc12
**Result** < 0.1 µM

**Query** Sample O=c1cc(-c2cncc(F)c2)nc2ccc(N3CCNCC3)cn12 — what was its EC (1.5-fold increase)?
**Result** 1 to 3 µM

**Query** Dear colleague, I am looking for the recorded EC (1.5-fold increase) of the following compound: CCN1CCN(c2ccc3nc(-c4cc(Cl)c5nc(C)cn5c4)cc(=O)n3c2)C[C@@H]1C
**Result** < 0.1 µM

**Query** What does the record list as EC (1.5-fold increase) for Cc1cn2cc(-c3cc(=O)n4cc(N5CCNCC5)ccc4n3)nc2c(C)n1 ?
**Result** 0.1 to 0.3 µM

**Query** Name the reported EC (1.5-fold increase) value associated with the compound CCc1cc(N2CCC(N(C)C)CC2)cn2c(=O)cc(-c3ccc(OC)c(OC)c3)nc12
**Result** < 0.1 µM

**Query** If you can, please state the reported EC (1.5-fold increase) value of O=c1cc(-c2ccccc2)nc2ccc(N3CCNCC3)cn12 .
**Result** 1 to 3 µM

**Query** Which EC (1.5-fold increase) value is on record for Cc1cn2nc(-c3cc(=O)n4cc(N5CCC(N6CCCC6)CC5)ccc4n3)cc2c(C)n1 ?
**Result** < 0.1 µM
